- system-name: Fuc(a1-3)[GalNAc(b1-4)]GlcNAc6S
- assay-protocol: glycan array binding signal (z-score within array); higher = stronger binding
- condition-label: glycan notation: IUPAC condensed, linker removed
Many of the other results were omitted from the sample, so the strongest signals are more common in it than they were.
Overview of reported glycan array binding signal (z-score) across a group of binders:
measurement-type: glycan array binding signal (z-score)

{"binder": "UEA-I (Ulex europaeus), P22972 (protein) SDDLSFKFKNFSQNGKDLSFQGDASVIETGVLQLNKVGNNLPDETGGIARYIAPIHIWNCNTGEVASFITSFSFFMETSANPKAATDGLTFFLAPPDSPLRRAGGYFGLFEDTKDNDSSYQTVAVEFDTIGSPVNFDDPGFPHIGIDVNRVKSINAERWNKRYGLNNVANVEIIYEASSKTLTASLTYPSDQTSISVTSIVDLKEILPEWVSVGFSGGTYIGRQATHEVLNWYFTSNLINTNS", "measured-value": -0.217}
{"binder": "Cohesin-hDCIR (Homo sapiens) (protein) LDDLDAVRIKVDTVNAKPGDTVRIPVRFSGIPSKGIANCDFVYSYDPNVLEIIEIEPGDIIVDPNPDKSFDTAVYPDRKIIVFLFAEDSGTGAYAITKDGVFATIVAKVKEGAPNGLSVIKFVEVGGFANNDLVEQKTQFFDGGANVGDTTEPATPTTPVTTPTTTDDLDAASQKYSQLLEKKTTKELVHTTLECVKKNMPVEETAWSCCPKNWKSFSSNCYFISTESASWQDSEKDCARMEAHLLVINTQEEQDFIFQNLQEESAYFVGLSDPEGQRHWQWVDQTPYNESSTFWHPREPSDPNERCVVLNFRKSPKRWGWNDVNCLGPQRSVCEMMKIHLHHHHHH", "measured-value": 0.081}
{"binder": "AT3G44510(29) (Arabidopsis thaliana), F4J341 (protein) MEEHLQGRIKLHDGRYLAYKERGVPKDDAKFTIVLVHGFGSSKDMNFNVSQELVNEIGIYFVLYDRAGYGESDPNPKRSLKSEAYDVQELADGLEIGSRFYLIGISMGSYTVWSCLKHIPQRLAGVAMVAPVVNFRWPSIPKSLMPKDYRREVAKWSVWIANYFPGLLQWLVTQNMFSTTSMLEKNPVYFNDQDIEVLKHIKGFPMLTKEKLRERGVFGTLRSDFLVAFGDWDFDPADLPDPSLSGPEKGSSSVHIWQGYEDKVMPFQLQRCLCRKLPWIRYHEVPKGGHLIVHYDGICDAILKSLLLGEDLPMYKPKAVITEPA", "measured-value": -0.561}
{"binder": "CrataBL (Crataeva tapia), C0HJA4 (protein) AILTGVPYYILPSTSRAGFSPDNLRKNTSQLSCPLDLITQLRFPRRIGVPVIFTPQNSSLKVVPLSHNLNIHTCSDLWFCPESKIWTVKSSLTHGGSVVTTGGTFRSLGSWFRIERHGDSYKLVHCPRGSTPCRDVGIETVGGGGRRYLAPRDRPLAVRFTRASG", "measured-value": 0.386}
{"binder": "B936 (Bifidobacterium sp) (protein) MKNWKKAIALVASAAALVSVAACGPSNAGGSSDSGKKTVGFVAVGPEGGFRTANEKDIQKAFEDAGFDLTYSPTQNNDQQKQIQAFNKFVNDEVDAIILSSTEDSGWDDSLKKAAEAEIPVFTVDRNVDVKDAEAKKAIVAHIGPSNVWCGEQAAEFVNKNFPDGANGFILEGPAGLSVVKDRGTGWGNKVASNVKVLESQSANWSTDEAKTVTAGLLDKYKSDNPQFIFAQNDEMGLGAAQAVDAAGLKGKVKIITIDGTKNALQALVDGDLSYVIEYNPIFGKETAQAVKDYLDGKTVEKDIEIESKTFDAASAKEALDNNTRAY", "measured-value": -0.367}
{"binder": "rCnSL-A (Clitocybe nebularis) (protein) VNPNLPGPNDVFVGFRGTNNIVGAIYEKDGIKDTPLNNGADAEMGPGSYITDGLFTARIFASGSAGNNPGTTATVCKIYASGVQWRGAPKGYIPVAYFGNGPTAEQRRQTYLRTLGLPGTAIRFGNLNTNPGQGPTAPRQMVVPPGPLRSLLKASCFPAADTRLPQTLHYFEKRVDWNIITAADSQTWGH", "measured-value": -0.255}

This collection of values is drawn from the supplement of paper PMC8728848.
